# Test system: Abutilon threophrasti (ABUTH)
# Assay Remarks: Post-emergence glasshouse spray test, visual percentage phytotoxicity after 13 days
# Assay type: in vivo
# Conditions Used: B1; 5 g/ha post-emergence
Endpoint: ABUTH percentage phytotoxicity (%)
// units = %; emit number, no label

Readout ABUTH percentage phytotoxicity for COc1c(Cl)ccc(-c2nc(C(=O)OCc3ccccc3)c(Cl)c(N)c2F)c1F , test system Abutilon threophrasti (ABUTH), was 80

Summary: CCOC(=O)COc1ncccc1Oc1cc(-n2c(=O)cc(C(F)(F)F)n(C)c2=O)c(F)cc1Cl , Abutilon threophrasti (ABUTH), ABUTH percentage phytotoxicity = 100

Item CS(=O)(=O)c1ccc(C(=O)C2C(=O)CCCC2=O)c(Cl)c1OCCC1OCCO1 ; assay system Abutilon threophrasti (ABUTH); ABUTH percentage phytotoxicity reported as 58

Log: Abutilon threophrasti (ABUTH), compound Nc1c(F)c(-c2ccc3cc[nH]c3c2F)nc(C(=O)O)c1Cl , ABUTH percentage phytotoxicity = 78

Measured ABUTH percentage phytotoxicity for this entry FC(F)c1cc(-c2c(Cl)cccc2Oc2ncc(Cl)cn2)on1 on Abutilon threophrasti (ABUTH): 68

====

# System: Lolium perenne (LOLPE)
# Assay Remarks: Post-emergence glasshouse spray test, visual percentage phytotoxicity after 13 days
# Assay type: in vivo
# Conditions Used: B1; 2.5 g/ha post-emergence
# Description: Seeds of Setaria faberi (SETFA), Echinochloa crus-galli (ECHCG), Digitaria sanguinalis (DIGSA), Lolium perenne (LOLPE), Alopecurus myosuroides (ALOMY), Chenopodium album (CHEAL), Ipomoea hederacea (IPOHE), Stellaria media (STEME), Abutilon threophrasti (ABUTH), Amaranthus retroflexus (AMARE) were sown in standard sterilised soil in pots. […]
So I've got a bunch of compounds here, and I need their LOLPE percentage phytotoxicity values.
Quick reminder: number only, in %, skip the unit.

Just so you know, measured LOLPE percentage phytotoxicity for CS(=O)(=O)c1ccc(C(=O)C2C(=O)CCCC2=O)c(Cl)c1OCCC1OCCO1 [B-II] came out at 0

In plain terms, COc1c(Cl)ccc(-c2nc(C(=O)OCc3ccccc3)c(Cl)c(N)c2F)c1F [B-I] has a documented LOLPE percentage phytotoxicity of 0

According to the records, this compound CCOC(=O)COc1ncccc1Oc1cc(-n2c(=O)cc(C(F)(F)F)n(C)c2=O)c(F)cc1Cl [B-V] displays LOLPE percentage phytotoxicity of 15

Recorded result, FC(F)c1cc(-c2c(Cl)cccc2Oc2ncc(Cl)cn2)on1 [A-I] , LOLPE percentage phytotoxicity: 8

The value of LOLPE percentage phytotoxicity measured for the compound Nc1c(F)c(-c2ccc3cc[nH]c3c2F)nc(C(=O)O)c1Cl [B-VI] turned out to be 0

====

# System: Setaria faberi (SETFA)
# Assay Remarks: Post-emergence glasshouse spray test, visual percentage phytotoxicity after 13 days
# Assay type: in vivo
# Conditions Used: B1; 10 g/ha post-emergence
Endpoint: SETFA percentage phytotoxicity (%)
Expressed in %, but write only the number.

Field SETFA percentage phytotoxicity (Setaria faberi (SETFA)), entry FC(F)c1cc(-c2c(Cl)cccc2Oc2ncc(Cl)cn2)on1 : 65

The compound Nc1c(F)c(-c2ccc3cc[nH]c3c2F)nc(C(=O)O)c1Cl , when measured on Setaria faberi (SETFA), yielded SETFA percentage phytotoxicity of 70

Noted SETFA percentage phytotoxicity for COc1c(Cl)ccc(-c2nc(C(=O)OCc3ccccc3)c(Cl)c(N)c2F)c1F , tested on Setaria faberi (SETFA): 20

Record CS(=O)(=O)c1ccc(C(=O)C2C(=O)CCCC2=O)c(Cl)c1OCCC1OCCO1 ; system Setaria faberi (SETFA); SETFA percentage phytotoxicity = 3

====

# Test system: Lolium perenne (LOLPE)
# Assay Remarks: Post-emergence glasshouse spray test, visual percentage phytotoxicity after 13 days
# Assay type: in vivo
# Conditions Used: B1; 10 g/ha post-emergence
Endpoint: LOLPE percentage phytotoxicity (%)
Report as a plain number; the unit % is understood.

The reported value for FC(F)c1cc(-c2c(Cl)cccc2Oc2ncc(Cl)cn2)on1 in terms of LOLPE percentage phytotoxicity is 30

Per the records, this molecule ( COc1c(Cl)ccc(-c2nc(C(=O)OCc3ccccc3)c(Cl)c(N)c2F)c1F ) has LOLPE percentage phytotoxicity equal to 5

Per the record, CS(=O)(=O)c1ccc(C(=O)C2C(=O)CCCC2=O)c(Cl)c1OCCC1OCCO1 has LOLPE percentage phytotoxicity of 0

For reference, reported LOLPE percentage phytotoxicity for Nc1c(F)c(-c2ccc3cc[nH]c3c2F)nc(C(=O)O)c1Cl stands at 8

====

I'd be grateful if you could share measured SETFA percentage phytotoxicity for these entries.
# Test system: Setaria faberi (SETFA)
# Assay Remarks: Post-emergence glasshouse spray test, visual percentage phytotoxicity after 13 days
# Assay type: in vivo
# Conditions Used: B1; 5 g/ha post-emergence
// units = %; emit number, no label

Recorded SETFA percentage phytotoxicity (compound COc1c(Cl)ccc(-c2nc(C(=O)OCc3ccccc3)c(Cl)c(N)c2F)c1F ): 3

The compound listed as CCOC(=O)COc1ncccc1Oc1cc(-n2c(=O)cc(C(F)(F)F)n(C)c2=O)c(F)cc1Cl shows SETFA percentage phytotoxicity equal to 100

Sure, the documented SETFA percentage phytotoxicity for FC(F)c1cc(-c2c(Cl)cccc2Oc2ncc(Cl)cn2)on1 is 53

Item: CS(=O)(=O)c1ccc(C(=O)C2C(=O)CCCC2=O)c(Cl)c1OCCC1OCCO1 | SETFA percentage phytotoxicity: 0

SETFA percentage phytotoxicity measured on Nc1c(F)c(-c2ccc3cc[nH]c3c2F)nc(C(=O)O)c1Cl = 48

====

For each of the compounds below, state its ABUTH percentage phytotoxicity.
# Test system: Abutilon threophrasti (ABUTH)
# Assay Remarks: Post-emergence glasshouse spray test, visual percentage phytotoxicity after 13 days
# Format: in vivo
# Conditions Used: B1; 1.25 g/ha post-emergence
Field format: number, assumed %, no unit text.

GET /values?item= Nc1c(F)c(-c2ccc3cc[nH]c3c2F)nc(C(=O)O)c1Cl [B-VI] &system= Abutilon threophrasti (ABUTH) returns ABUTH percentage phytotoxicity: 55

Response field ABUTH percentage phytotoxicity (Abutilon threophrasti (ABUTH)) for item COc1c(Cl)ccc(-c2nc(C(=O)OCc3ccccc3)c(Cl)c(N)c2F)c1F [B-I] : 83

Given the compound CS(=O)(=O)c1ccc(C(=O)C2C(=O)CCCC2=O)c(Cl)c1OCCC1OCCO1 [B-II] and test system Abutilon threophrasti (ABUTH), the measured ABUTH percentage phytotoxicity is 38

Measured on Abutilon threophrasti (ABUTH), CCOC(=O)COc1ncccc1Oc1cc(-n2c(=O)cc(C(F)(F)F)n(C)c2=O)c(F)cc1Cl [B-V] has a documented ABUTH percentage phytotoxicity of 100

# lookup: FC(F)c1cc(-c2c(Cl)cccc2Oc2ncc(Cl)cn2)on1 [A-I] on Abutilon threophrasti (ABUTH), ABUTH percentage phytotoxicity = 41

====

Please go through the items and note down their STEME percentage phytotoxicity.
# Test system: Stellaria media (STEME)
# Assay Remarks: Post-emergence glasshouse spray test, visual percentage phytotoxicity after 13 days
# Format: in vivo
# Conditions Used: B1; 0.625 g/ha post-emergence
Answer with a number only, understood to be in %.

Reported STEME percentage phytotoxicity of COc1c(Cl)ccc(-c2nc(C(=O)OCc3ccccc3)c(Cl)c(N)c2F)c1F : 50

Entry CS(=O)(=O)c1ccc(C(=O)C2C(=O)CCCC2=O)c(Cl)c1OCCC1OCCO1 , STEME percentage phytotoxicity reported as 0

The value of STEME percentage phytotoxicity measured for the compound Nc1c(F)c(-c2ccc3cc[nH]c3c2F)nc(C(=O)O)c1Cl turned out to be 78

Field STEME percentage phytotoxicity (entry CCOC(=O)COc1ncccc1Oc1cc(-n2c(=O)cc(C(F)(F)F)n(C)c2=O)c(F)cc1Cl ) reads 83

Record summary for FC(F)c1cc(-c2c(Cl)cccc2Oc2ncc(Cl)cn2)on1 : reported STEME percentage phytotoxicity = 44

====

# Tested on: Chenopodium album (CHEAL)
# Assay Remarks: Post-emergence glasshouse spray test, visual percentage phytotoxicity after 13 days
# Type: in vivo
# Conditions Used: B1; 10 g/ha post-emergence
Endpoint: CHEAL percentage phytotoxicity
Answer with the value and then the unit.

The compound Nc1c(F)c(-c2ccc3cc[nH]c3c2F)nc(C(=O)O)c1Cl [B-VI] showed CHEAL percentage phytotoxicity equal to 84%

Recorded result, CS(=O)(=O)c1ccc(C(=O)C2C(=O)CCCC2=O)c(Cl)c1OCCC1OCCO1 [B-II] , CHEAL percentage phytotoxicity: 65%

// CHEAL percentage phytotoxicity value for COc1c(Cl)ccc(-c2nc(C(=O)OCc3ccccc3)c(Cl)c(N)c2F)c1F [B-I] : 75%

Per the record, FC(F)c1cc(-c2c(Cl)cccc2Oc2ncc(Cl)cn2)on1 [A-I] has CHEAL percentage phytotoxicity of 78%
